Tested on: SpTbr T-box DNA-binding domain (GST fusion);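 also: protein at 200 nM in PBS on universal double-stranded arrays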
Sequence: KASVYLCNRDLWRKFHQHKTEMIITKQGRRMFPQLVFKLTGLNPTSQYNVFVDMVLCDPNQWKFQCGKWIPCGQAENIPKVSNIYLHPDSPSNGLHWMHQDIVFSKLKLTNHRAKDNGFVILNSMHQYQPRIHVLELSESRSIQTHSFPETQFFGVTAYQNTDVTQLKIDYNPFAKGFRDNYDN
Experiment: PBM E-score of 8-mer (E-score (dimensionless, -0.5 to 0.5)); higher = stronger binding preference
Settings: the construct has about 5 more residues each side
Over roughly 33,000 sequences, “E-score (dimensionless, -0.5 to 0.5)” has its median near -0.046; the highest 2% begin near 0.36. For the sample, the highest values were picked, then their nearest neighbours and some sequences at random.
Classification by PBM E-score of 8-mer | ranges: LOW (below -0.03), MEDIUM (-0.03 to below 0.2), HIGH (0.2 or more)

Look over these answered cases.
AACCACGG: MEDIUM
GGCACCGA: LOW
AGGTGTTG: HIGH
ACTTAAGT: LOW
CCTCCATC: MEDIUM

Form field 'band' for AGGTGTTC HIGH

Request: CTGAACAC LOW

Request: CGGTGTTC LOW

Request: GCCACCTA HIGH

Request: AGATGTTC MEDIUM

Request: AGCTGTTG HIGH

* * *

For each entry below, report its PBM E-score of 8-mer value.
Test system: SpTbr T-box DNA-binding domain (GST fusion);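 also: protein at 200 nM in PBS on universal double-stranded arrays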
Sequence: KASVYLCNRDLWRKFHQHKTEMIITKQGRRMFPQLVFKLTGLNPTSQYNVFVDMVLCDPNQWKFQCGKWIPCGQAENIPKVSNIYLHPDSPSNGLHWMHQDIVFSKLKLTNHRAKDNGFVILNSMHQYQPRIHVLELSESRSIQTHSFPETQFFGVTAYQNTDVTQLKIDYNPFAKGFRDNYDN
Experiment: PBM E-score of 8-mer (E-score (dimensionless, -0.5 to 0.5)); higher = stronger binding preference
Details: target sequence: T-box / the construct has about 5 more residues each side
Over roughly 33,000 sequences, “E-score (dimensionless, -0.5 to 0.5)” has its median near -0.046; the highest 2% begin near 0.36. This excerpt belongs to a sample that is enriched for the highest values.
Numbers only.

Record PBM E-score of 8-mer per entry; entries follow.
1. TATTCTCA
2. GCACATCC
3. GCCTCACA
4. AGGCCTAT
5. CGTTGACA
6. CTGTCACA

[0.264, 0.137, 0.292, -0.196, 0.414, 0.358]

Record PBM E-score of 8-mer per entry; entries follow.
1. CATATCTA
2. ACACATCC
3. CTTCTGCA
4. TAGTGAGA
5. CTCTCACC

[-0.24, 0.388, 0.00227, 0.209, 0.38]

* * *

For each entry below, report its PBM E-score of 8-mer value.
Tested on: SpTbr T-box DNA-binding domain (GST fusion);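 also: protein at 200 nM in PBS on universal double-stranded arrays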
Sequence: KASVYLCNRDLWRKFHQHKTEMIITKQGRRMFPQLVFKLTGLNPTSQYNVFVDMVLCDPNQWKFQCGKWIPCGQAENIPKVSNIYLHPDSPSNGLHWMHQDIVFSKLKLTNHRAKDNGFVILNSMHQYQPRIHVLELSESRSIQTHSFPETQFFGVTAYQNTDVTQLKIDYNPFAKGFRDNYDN
Assay: PBM E-score of 8-mer (E-score (dimensionless, -0.5 to 0.5)); Tbr is Tbrain of the sea star Patiria miniata (Pm) or the sea urchin Strongylocentrotus purpuratus (Sp); higher = stronger binding preference
Conditions: target sequence: T-box / the construct has about 5 more residues each side
In all, about 33,000 sequences were measured (“E-score (dimensionless, -0.5 to 0.5)”: median about -0.046, highest 2% from about 0.36 on). The sample holds the highest values, similar sequences and a random draw of the others, so the mix is not that of the screen.
Give bare numbers.

Answered cases to consult:
CTCACGCA: 0.375
ATGCCTGC: -0.295
ACGTCGAC: 0.0807
ATCAACAT: -0.111
AAAGGCTC: -0.214
CCACCCTA: 0.0825
GCCACGAA: 0.00399
ACTCACGG: 0.061
GGTCTCAC: 0.346
ACACCCTG: 0.415

Record PBM E-score of 8-mer per entry; entries follow.
1. ACAACCCT
2. CGAGAGTA
3. CCACCCTC
4. ATACCCTG
5. GGCAAAAA
6. CGCAGCAC
7. CTTACGCC

[0.0805, 0.0304, 0.0803, -0.119, 0.0671, 0.0169, 0.177]
